Reference source for all entries: patent US20080057063A1

# System tested: T1, human αV on parental A375M cells, which express αVβ3 and αVβ5, but not αVβ6 (human, UniProt P06756 31-1048)
# T1 construct: whole, on cells; Two heterodimers (αVβ3, αVβ5) on one cell line; also called αVβ3 or αVβ5 integrins
# T1 sequence (P06756 31-1048 A375M): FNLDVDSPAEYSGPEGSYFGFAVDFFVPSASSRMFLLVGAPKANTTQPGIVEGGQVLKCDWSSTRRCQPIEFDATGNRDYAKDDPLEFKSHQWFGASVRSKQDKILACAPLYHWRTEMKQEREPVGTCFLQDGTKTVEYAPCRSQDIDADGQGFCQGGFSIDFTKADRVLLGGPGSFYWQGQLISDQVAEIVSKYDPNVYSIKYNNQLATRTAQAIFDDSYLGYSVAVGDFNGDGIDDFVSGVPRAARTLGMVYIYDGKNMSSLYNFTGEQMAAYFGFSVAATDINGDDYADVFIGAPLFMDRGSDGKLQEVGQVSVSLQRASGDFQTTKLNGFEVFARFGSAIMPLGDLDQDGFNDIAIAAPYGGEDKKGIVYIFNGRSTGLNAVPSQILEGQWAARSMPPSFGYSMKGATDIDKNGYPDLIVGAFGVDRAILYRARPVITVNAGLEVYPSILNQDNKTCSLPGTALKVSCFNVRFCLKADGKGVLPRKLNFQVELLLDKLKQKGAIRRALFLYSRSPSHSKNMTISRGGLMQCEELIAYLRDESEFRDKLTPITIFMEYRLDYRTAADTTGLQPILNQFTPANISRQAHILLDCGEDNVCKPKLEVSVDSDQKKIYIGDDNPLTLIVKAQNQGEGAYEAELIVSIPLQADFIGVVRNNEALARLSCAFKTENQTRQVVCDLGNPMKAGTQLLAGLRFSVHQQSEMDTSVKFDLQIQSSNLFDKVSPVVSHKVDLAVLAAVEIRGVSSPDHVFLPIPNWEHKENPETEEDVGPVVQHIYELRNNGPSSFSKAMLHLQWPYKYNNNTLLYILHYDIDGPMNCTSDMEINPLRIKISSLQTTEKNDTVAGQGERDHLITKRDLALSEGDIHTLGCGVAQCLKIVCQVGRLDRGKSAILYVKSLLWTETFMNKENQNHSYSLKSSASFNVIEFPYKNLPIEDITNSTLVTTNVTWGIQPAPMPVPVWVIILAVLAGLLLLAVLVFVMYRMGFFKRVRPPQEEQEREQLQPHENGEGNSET
# Experiment notes: FACS, parental A375M cells (αVβ3, αVβ5)
Entries and their GeoMean values follow.
Format: numeric value only, no unit, no commentary.

Consider the reported GeoMean for these binders:
>  <Binder>
sc 264 (antibody, V domains shown, RGD in heavy chain CDR3) VH: QVQLQESGPGLVKPSQTLSLTCTVSGGSISSGGYYWSWIRQHPGKGLEWIGYIYYSGRTYNNPSLKSRVTISVDTSKNQFSLKLSSVTAADTAVYYCARVATGRGDYHFYAMDVWGQGTTVTVSS VL: SYELTQPSSVSVSPGQTARITCSGDVLAKKSARWFHQKPGQAPVLVIYKDSERPSGIPERFSGSSSGTTVTLTISGAQVEDEAAYYCYSAADNNLVFGGGTKLTVL

>  <GeoMean>
2.35

$$$$
>  <Binder>
sc 97 (antibody, V domains shown, also called sc 097) VH: EVQLVQSGAEVKKPGESLKISCKGSGYSFTSYWIGWVRQMPGKGLEWMGIIYPGDSDTRYSPSFQGQVILSADKSISTAYLQWSSLKASDTAMYYCARHDESSGYYYVFDIWGQGTMVTVSS VL: SYELTQPPSVSVSPGQTARITCSGDALPKKYAYWYQQKSGQAPVLVIYEDIKRPSGIPERFSGSSSGTMATLTISGAQVEDEADYYCYSTDSSGNHWVFFGGGTKLTVL

>  <GeoMean>
1.84

$$$$
>  <Binder>
sc 298 (antibody, V domains shown) VH: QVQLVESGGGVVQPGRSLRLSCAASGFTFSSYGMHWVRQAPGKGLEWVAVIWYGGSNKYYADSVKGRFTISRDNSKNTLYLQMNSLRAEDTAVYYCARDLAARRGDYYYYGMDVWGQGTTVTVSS VL: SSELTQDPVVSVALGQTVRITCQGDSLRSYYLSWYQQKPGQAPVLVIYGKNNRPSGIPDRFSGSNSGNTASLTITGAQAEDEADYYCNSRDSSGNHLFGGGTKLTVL

>  <GeoMean>
2.14

$$$$
>  <Binder>
sc 161 (antibody, V domains shown) VH: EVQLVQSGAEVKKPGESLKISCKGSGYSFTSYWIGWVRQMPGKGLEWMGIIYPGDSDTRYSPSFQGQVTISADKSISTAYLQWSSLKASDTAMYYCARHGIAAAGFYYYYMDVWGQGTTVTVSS VL: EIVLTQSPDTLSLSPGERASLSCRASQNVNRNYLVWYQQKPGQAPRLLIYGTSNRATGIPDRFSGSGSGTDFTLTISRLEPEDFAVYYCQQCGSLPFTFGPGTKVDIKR

>  <GeoMean>
16.7

$$$$
>  <Binder>
sc 277 (antibody, V domains shown) VH: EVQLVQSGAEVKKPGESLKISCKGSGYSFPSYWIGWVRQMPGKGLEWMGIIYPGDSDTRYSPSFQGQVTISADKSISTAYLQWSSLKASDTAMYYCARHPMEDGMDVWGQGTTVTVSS VL: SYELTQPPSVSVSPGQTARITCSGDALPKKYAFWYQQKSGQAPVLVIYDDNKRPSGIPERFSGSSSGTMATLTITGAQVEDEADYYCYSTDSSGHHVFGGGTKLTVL

>  <GeoMean>
1.86

$$$$
>  <Binder>
sc 320 (antibody, V domains shown) VH: EVQLVESGGGLVKPGGSLRLSCAASGYTFTNYIMHWVRQAPGKGLEWVSSISISSSYIYYADSVKGRFTISRDNAKNSLYLQMNSLRAEDTAVYYCARDPVPLERRDYYYGMDVWGQGTTVTVSS VL: QSVLTQPPSMSAAPGQKVTISCSGSSSNIGNNYVSWYQQLPGTAPKLLIYDNNKRPSGIPDRFSGSKSGTSATLGITGLQTGDEADYYCGTWDSSLSAGVFGGGTKLTVL

>  <GeoMean>
23.2

$$$$

For the binder sc 133 (antibody, V domains shown) VH: QVQLVQSGAEVKKPGASVKVSCKASGYTFTGYYMHWVRQAPGQGLEWMGWINPKSGDTNYAQKFQGRVTLTRDTSTSTAYMELSRLRSDDTAVYYCARRLDVWGQGTTVTVSS VL: QSVLTQPPSVSAAPGQKVTISCSGSSSNIGNNYVSWYQQLPGTAPKLLIYDNNKRPSGIPDRFSGSKSGTSATLGITGLQTGDEADYYCGTWNSSLSAGYVFGTGTKVTV , what GeoMean is on record?
1.79
